tested on: blackgrass; assay: Test B pre/postemergence blackgrass; type: in vivo, Alopecurus myosuroides; conditions: Rate 125 g/ha, Postemergence; scale 0 to 10
EXPERIMENTAL_READOUT: Blackgrass plant response rating
The reply should be a number, written without any unit.

// field: Blackgrass plant response rating; key: CC(C)N(C(=O)n1oc(=O)n(Cc2ccco2)c1=O)c1ccc(Cl)cc1 [Compound 206] ; value = 0

In plain terms, CC(=O)OCCCCn1c(=O)on(C(=O)N(c2ccc(F)cc2)C(C)C)c1=O [Compound 211] has a documented Blackgrass plant response rating of 3

The reported Blackgrass plant response rating of the compound CON=C(Cn1c(=O)on(C(=O)N(c2ccc(F)cc2)C(C)C)c1=O)C(F)(F)F [Compound 227] was 2

Consider the additional compound presented here.
The recorded Blackgrass plant response rating for CC(C)N(C(=O)n1oc(=O)n([C@H](C)c2ccccc2)c1=O)c1ccc(F)cc1F [Compound 238] is 0

Hey, just so you know, these numbers are from patent US6737383B1.
